Molecular target: ATP-binding cassette sub-family C member 2 (Rattus norvegicus, UniProt Q63120)
Sequence (Q63120 whole entry): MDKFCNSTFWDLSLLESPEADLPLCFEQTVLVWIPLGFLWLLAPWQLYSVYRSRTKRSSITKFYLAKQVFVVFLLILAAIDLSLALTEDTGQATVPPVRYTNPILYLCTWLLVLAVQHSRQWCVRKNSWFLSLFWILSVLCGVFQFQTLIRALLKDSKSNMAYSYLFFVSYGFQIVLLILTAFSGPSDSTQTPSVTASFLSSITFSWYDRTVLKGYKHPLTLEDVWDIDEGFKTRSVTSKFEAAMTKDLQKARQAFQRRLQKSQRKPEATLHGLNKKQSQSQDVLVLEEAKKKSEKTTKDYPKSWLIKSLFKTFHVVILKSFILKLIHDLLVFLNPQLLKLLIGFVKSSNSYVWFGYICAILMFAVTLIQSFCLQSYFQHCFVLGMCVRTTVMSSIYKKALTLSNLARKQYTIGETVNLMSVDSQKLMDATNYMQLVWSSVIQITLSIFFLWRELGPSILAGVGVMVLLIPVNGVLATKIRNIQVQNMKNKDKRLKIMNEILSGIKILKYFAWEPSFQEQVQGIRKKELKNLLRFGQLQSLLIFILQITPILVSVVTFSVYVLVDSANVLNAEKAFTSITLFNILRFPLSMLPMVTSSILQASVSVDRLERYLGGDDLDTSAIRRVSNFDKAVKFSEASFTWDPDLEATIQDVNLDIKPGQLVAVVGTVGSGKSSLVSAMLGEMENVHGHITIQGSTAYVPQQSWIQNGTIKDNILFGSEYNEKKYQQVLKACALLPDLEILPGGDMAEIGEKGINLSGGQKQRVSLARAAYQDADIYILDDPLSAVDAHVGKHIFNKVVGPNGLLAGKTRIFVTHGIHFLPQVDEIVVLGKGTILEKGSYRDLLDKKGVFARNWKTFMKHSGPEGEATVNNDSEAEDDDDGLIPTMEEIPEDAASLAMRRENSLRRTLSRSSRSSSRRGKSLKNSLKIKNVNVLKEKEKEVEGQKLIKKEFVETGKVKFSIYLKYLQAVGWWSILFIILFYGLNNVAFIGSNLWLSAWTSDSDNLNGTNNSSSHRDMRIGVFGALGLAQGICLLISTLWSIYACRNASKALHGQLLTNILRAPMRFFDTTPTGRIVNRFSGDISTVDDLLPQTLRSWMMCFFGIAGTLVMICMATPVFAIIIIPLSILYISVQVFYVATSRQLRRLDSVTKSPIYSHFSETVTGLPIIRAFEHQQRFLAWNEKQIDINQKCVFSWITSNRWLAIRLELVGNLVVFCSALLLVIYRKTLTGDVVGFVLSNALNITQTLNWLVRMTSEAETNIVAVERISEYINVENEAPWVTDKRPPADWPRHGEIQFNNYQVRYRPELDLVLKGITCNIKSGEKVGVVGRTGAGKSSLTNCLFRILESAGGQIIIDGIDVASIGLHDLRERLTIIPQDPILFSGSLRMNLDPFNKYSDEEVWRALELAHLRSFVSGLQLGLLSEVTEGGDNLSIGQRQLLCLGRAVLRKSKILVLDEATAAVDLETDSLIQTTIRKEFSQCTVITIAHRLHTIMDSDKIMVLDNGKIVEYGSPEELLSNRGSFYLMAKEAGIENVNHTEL
Assay: TP_TRANSPORTER: inhibition of DNP-SG uptake in bile canalicular membrane vesicles from SD rat
pKi: −log10 of the molar value.
measurement-label: pKi

Worked cases, pKi given:
compound="CN(Cc1cnc2nc(N)nc(N)c2n1)c1ccc(C(=O)NC(CCC(=O)NC(CCC(=O)N[C@@H](CCC(=O)O)C(=O)O)C(=O)O)C(=O)O)cc1 (stereo partly drawn)" measurement_label=pKi endpoint_value=3.08
compound="Nc1nc(N)c2nc(CN3CCOc4cc(C(=O)NC(CCCC(=O)O)C(=O)O)ccc43)cnc2n1 (stereo not drawn)" measurement_label=pKi endpoint_value=3.69
compound="CCCN(Cc1cnc2nc(N)nc(N)c2n1)c1ccc(C(=O)NC(CCC(=O)O)C(=O)O)cc1 (stereo not drawn)" measurement_label=pKi endpoint_value=3.81
compound="Nc1nc(N)c2nc(CN3CCSc4cc(C(=O)NC(CCC(=O)O)C(=O)O)ccc43)cnc2n1 (stereo not drawn)" measurement_label=pKi endpoint_value=3.86
compound="Cc1cc(C(=O)NC(CCC(=O)O)C(=O)O)ccc1N(C)Cc1cnc2nc(N)nc(N)c2n1 (stereo not drawn)" measurement_label=pKi endpoint_value=3.82

1: CC(C)N(Cc1cnc2nc(N)nc(N)c2n1)c1ccc(C(=O)NC(CCC(=O)O)C(=O)O)cc1 (stereo not drawn)
2: CN(Cc1cnc2nc(N)nc(N)c2n1)c1ccc(C(=O)NC(CCCNC(=O)c2ccccc2)C(=O)O)cc1 (stereo not drawn)
Between the entries labelled 1 and 2 , which has a larger pKi value on record? Lab log: write the label of the selected item as the result.
2

---

Biological target: ATP-binding cassette sub-family C member 2 (Rattus norvegicus, UniProt Q63120)
Assay: TP_TRANSPORTER: inhibition of DNP-SG uptake in bile canalicular membrane vesicles from SD rat
measurement-label: Ki (µM)

compound="Cc1cc(C(=O)NC(CCC(=O)O)C(=O)O)cc2c1N(Cc1cnc3nc(N)nc(N)c3n1)CC2 (configuration not stated)" endpoint_value=173
compound="CN(Cc1cnc2nc(N)nc(N)c2n1)c1ccc(C(=O)NC(CCC(=O)NC(CCC(=O)NC(CCC(=O)NC(CCC(=O)N[C@@H](CCC(=O)O)C(=O)O)C(=O)O)C(=O)O)C(=O)O)C(=O)O)cc1 (some centres not stated)" endpoint_value=501
compound="CC(C)CC(NC(=O)c1ccc(N(C)Cc2cnc3nc(N)nc(N)c3n2)cc1)C(=O)O (configuration not stated)" endpoint_value=308
compound="Cc1cc(C(=O)NC(CCC(=O)O)C(=O)O)ccc1NCc1cnc2nc(N)nc(N)c2n1 (configuration not stated)" endpoint_value=382

1: Cc1cc(C(=O)NC(CCC(=O)O)C(=O)O)cc(C)c1N(C)Cc1cnc2nc(N)nc(N)c2n1 (configuration not stated)
2: CC(C)N(Cc1cnc2nc(N)nc(N)c2n1)c1ccc(C(=O)NC(CCCNC(=O)c2ccccc2)C(=O)O)cc1 (configuration not stated)
3: Nc1nc(N)c2nc(CN3CCSc4cc(C(=O)NC(CCCC(=O)O)C(=O)O)ccc43)cnc2n1 (configuration not stated)
Order the items by recorded Ki; the first position goes to the largest value. Sort and list the labels as requested.
3, 1, 2

P: CCN(Cc1cnc2nc(N)nc(N)c2n1)c1ccc(C(=O)NC(CCCNC(=O)c2ccccc2)C(=O)O)cc1 (configuration not stated)
Q: CCN(Cc1cnc2nc(N)nc(N)c2n1)c1ccc(C(=O)NC(CCC(=O)O)C(=O)O)cc1C (configuration not stated)
R: CCC(C)C(NC(=O)c1ccc(N(C)Cc2cnc3nc(N)nc(N)c3n2)cc1)C(=O)O (configuration not stated)
S: Nc1nc(N)c2nc(CN3CCSc4cc(C(=O)N[C@@H](CCCC(=O)N[C@@H](CCC(=O)O)C(=O)O)C(=O)O)ccc43)cnc2n1
T: CC(C)N(Cc1cnc2nc(N)nc(N)c2n1)c1ccc(C(=O)N2C[C@H](O)C[C@H]2C(=O)O)cc1
Sort ascending by Ki. In plain terms: list the labels in the order you were asked to.
P, R, Q, S, T
(P: 32.5 µM, R: 56.9 µM, Q: 98.3 µM, S: 223 µM, T: 784 µM)
